- EXPERIMENT SUMMARY: Mouse PK test: plasma concentration after intravenous or oral administration
- Format: in vivo, mice (C57BL/6J)
- REPORTED CONDITIONS: C57BL/6J, plasma, male mice, oral administration, 50 mg/kg, read-out: AUCinf
Non-standard residues stand in square brackets, D forms with d. Residues, ends and D or L forms follow the SMILES beside them. *: point of attachment. NMeF = CN[C@@H](Cc1ccccc1)C(=O)O; NMeT = CN[C@H](C(=O)O)[C@@H](C)O; NMeL = CN[C@@H](CC(C)C)C(=O)O; NMeV = CN[C@H](C(=O)O)C(C)C; d(β3hA) = C[C@@H](N)CC(=O)O; NMeAbu = CC[C@H](NC)C(=O)O; Abu = CC[C@H](N)C(=O)O; tBu = CC(C)(C)*
Quick list: AUC(0-inf) per entry.
# value in ng·h/mL; strip the unit string

Given item CC[C@H](C)[C@@H]1NC(=O)[C@H](CC(C)C)N(C)C(=O)C[C@@H](C)NC(=O)[C@H](C(C)C)N(C)C(=O)[C@H](COC(C)(C)C)NC(=O)[C@H](CC)N(C)C(=O)[C@H](Cc2ccccc2)N(C)C(=O)[C@H](CC(C)C)NC(=O)[C@@H]2CCCN2C(=O)[C@H]([C@@H](C)O)N(C)C(=O)[C@H](CC(C)C)N(C)C(=O)[C@H](CC)N(C)C(=O)[C@H](C(C)C)NC(=O)[C@H](CC(C)C)N(C)C1=O [pd057] (cyclo(I[NMeL]V[NMeAbu][NMeL][NMeT]PL[NMeF][NMeAbu]S(tBu)[NMeV][d(β3hA)][NMeL])) , the value recorded as its AUC(0-inf) is 20000

Now turn to the next compound.
Given item CC[C@@H]1NC(=O)[C@H](CC(C)C)N(C)C(=O)[C@H]([C@@H](C)CC)NC(=O)[C@H](CC(C)C)N(C)C(=O)C[C@@H](C)NC(=O)[C@H](C(C)C)N(C)C(=O)[C@H](CC(C)C)NC(=O)[C@H](CC)N(C)C(=O)[C@H](Cc2ccccc2)N(C)C(=O)[C@@H]2CCCN2C(=O)[C@H](CC(C)C)NC(=O)[C@H]([C@@H](C)O)N(C)C(=O)[C@H](CC(C)C)N(C)C1=O [pd135] (cyclo([Abu][NMeL][NMeT]LP[NMeF][NMeAbu]L[NMeV][d(β3hA)][NMeL]I[NMeL])) , the value recorded as its AUC(0-inf) is 79000

---

- System: Caco-2 cells
- EXPERIMENT SUMMARY: Membrane permeability test using Caco-2 cells with preincubation
- Type: in vitro ADME
- REPORTED CONDITIONS: Caco-2 cells, preincubation 20 to 24 hours; apical FaSSIF/HBSS 1% DMSO pH 6.0, basal HBSS 4% BSA pH 7.4; basal sample at 180 minutes
Positions of bridges follow the written chain, without caps; N, C: chain ends. Non-standard residues stand in square brackets, D forms with d. Residues, ends and D or L forms follow the SMILES beside them. *: point of attachment. NMeF = CN[C@@H](Cc1ccccc1)C(=O)O; NMeD = CN[C@@H](CC(=O)O)C(=O)O; NMeL = CN[C@@H](CC(C)C)C(=O)O; dNMeV = CN[C@@H](C(=O)O)C(C)C; NMeV = CN[C@H](C(=O)O)C(C)C; NMeA = CN[C@@H](C)C(=O)O; Piperidide = C1CCN(*)CC1; Abu = CC[C@H](N)C(=O)O; NBuGly = CCCCNCC(=O)O; Sar = CNCC(=O)O; tBu = CC(C)(C)*
QUANTITY MEASURED: Caco2 Papp (10^-6 cm/sec)

Given item CCCCN1CC(=O)N(C)[C@@H](CC(C)C)C(=O)N[C@@H](COC(C)(C)C)C(=O)N(C)[C@@H](Cc2ccccc2)C(=O)N(C)[C@@H](C)C(=O)N(C)[C@@H](C(C)C)C(=O)N[C@H](C(=O)N2CCCCC2)CC(=O)N(C)[C@H](C(C)C)C(=O)N(C)[C@@H](Cc2ccccc2)C(=O)N2CCC[C@H]2C(=O)N(C)[C@@H](C(C)C)C(=O)N(C)[C@@H](CC(C)C)C(=O)N[C@@H]([C@@H](C)O)C1=O [pd123] ([dNMeV][NMeF]P[NMeV][NMeL]T[NBuGly][NMeL]S(tBu)[NMeF][NMeA][NMeV]D-Piperidide; lactam N-13) , the value recorded as its Caco2 Papp (10^-6 cm/sec) is 0.56 10^-6 cm/sec

Next:
Given item CC[C@@H]1NC(=O)[C@H](CC(C)C)N(C)C(=O)[C@H]([C@@H](C)O)NC(=O)[C@H](C(C)C)N(C)C(=O)[C@H](C)NC(=O)[C@H](Cc2ccccc2)N(C)C(=O)[C@@H](C(C)C)NC(=O)C[C@@H](C(=O)N2CCCCC2)N(C)C(=O)CN(C)C(=O)[C@H](Cc2ccccc2)N(C)C(=O)[C@H](C)N(C)C(=O)[C@H](COC(C)(C)C)NC(=O)[C@H](CC(C)C)N(C)C(=O)CN(C)C1=O [pd090] ([dV][NMeF]A[NMeV]T[NMeL][Abu][Sar][NMeL]S(tBu)[NMeA][NMeF][Sar][NMeD]-Piperidide; lactam N-14) , the value recorded as its Caco2 Papp (10^-6 cm/sec) is <0.12 10^-6 cm/sec

---

Quick list: Caco2 Papp (10^-6 cm/sec) per entry.
- Test system: Caco-2 cells
- EXPERIMENT SUMMARY: Membrane permeability test using Caco-2 cells with preincubation
- Format: in vitro ADME
- REPORTED CONDITIONS: Caco-2 cells, preincubation 20 to 24 hours; apical FaSSIF/HBSS 1% DMSO pH 6.0, basal HBSS 4% BSA pH 7.4; basal sample at 180 minutes
Starred links: 1 amine or outer side, 2 acyl side, 3 side chain; linkers in the order of their positions; H or OH if unused. Positions of bridges follow the written chain, without caps; N, C: chain ends. Non-standard residues stand in square brackets, D forms with d. Residues, ends and D or L forms follow the SMILES beside them. *: point of attachment. NMedβ3hAla = C[C@H](CC(=O)[*:2])N(C)[*:1]; NMeF = CN[C@@H](Cc1ccccc1)C(=O)O; NMeGABA = CN(CCCC(=O)[*:2])[*:1]; NMeI = CC[C@H](C)[C@H](NC)C(=O)O; hPhe = N[C@@H](CCc1ccccc1)C(=O)O; NMeβAla = CN(CCC(=O)[*:2])[*:1]; NMeD = CN[C@@H](CC(=O)O)C(=O)O; NMeL = CN[C@@H](CC(C)C)C(=O)O; NMeV = CN[C@H](C(=O)O)C(C)C; d(β3hA) = C[C@@H](N)CC(=O)O; NMeA = CN[C@@H](C)C(=O)O; Piperidide = C1CCN(*)CC1; Abu = CC[C@H](N)C(=O)O; Sar = CNCC(=O)O; tBu = CC(C)(C)*

Solved entries (count: 3):
# value of Caco2 Papp (10^-6 cm/sec), Caco-2 cells, item CC[C@H](C)[C@@H]1NC(=O)CN(C)C(=O)C[C@@H](C(=O)N2CCCCC2)N(C)C(=O)[C@H](C(C)C)NC(=O)[C@H](Cc2ccccc2)N(C)C(=O)[C@H](CC(C)C)N(C)C(=O)[C@H]([C@@H](C)O)NC(=O)[C@H](CC(C)C)N(C)C(=O)[C@H](CC(C)C)NC(=O)[C@H](C(C)C)N(C)C(=O)[C@H](C)N(C)C(=O)[C@H](CC(C)C)N(C)C(=O)[C@H](CCc2ccccc2)NC(=O)[C@H](CC(C)C)N(C)C1=O [pd092] ([Sar]I[NMeL][hPhe][NMeL][NMeA][NMeV]L[NMeL]T[NMeL][NMeF]V[NMeD]-Piperidide; lactam N-14) = 0.09 10^-6 cm/sec

# value of Caco2 Papp (10^-6 cm/sec), Caco-2 cells, item CC[C@H](C)[C@@H]1NC(=O)[C@H](CC(C)C)N(C)C(=O)[C@H](C)N(C)C(=O)[C@H](Cc2ccccc2)N(C)C(=O)[C@@H]2CCCN2C(=O)[C@H](CC(C)C)N(C)C(=O)[C@H](CCc2ccccc2)NC(=O)CCN(C)C(=O)C[C@@H](C)NC(=O)[C@H](CC(C)C)N(C)C(=O)[C@H]([C@@H](C)O)NC(=O)CCN(C)C(=O)[C@H](C(C)C)N(C)C1=O [pd138] (cyclo(I[NMeV][NMeβAla]T[NMeL][d(β3hA)][NMeβAla][hPhe][NMeL]P[NMeF][NMeA][NMeL])) = 0.23 10^-6 cm/sec

# value of Caco2 Papp (10^-6 cm/sec), Caco-2 cells, item CC[C@@H]1NC(=O)[C@H](CC(C)C)N(C)C(=O)[C@H](COC(C)(C)C)NC(=O)[C@H]([C@@H](C)CC)NC(=O)[C@H](Cc2ccccc2)N(C)C(=O)CNC(=O)[C@H]([C@@H](C)CC)NC(=O)[C@H](CC(C)C)N(C)C(=O)CCCN(C)C(=O)C[C@@H](C)N(C)C(=O)[C@H](CC(C)C)NC(=O)[C@H](C)N(C)C(=O)[C@H](Cc2ccccc2)N(C)C(=O)[C@H](C(C)C)NC1=O [pd063] (cyclo([Abu]V[NMeF][NMeA]L[NMedβ3hAla][NMeGABA][NMeL]IG[NMeF]IS(tBu)[NMeL])) = 0.03 10^-6 cm/sec

Now turn to the next molecule.
# value of Caco2 Papp (10^-6 cm/sec), Caco-2 cells, item CC[C@H](C)[C@H]1C(=O)N[C@@H]([C@@H](C)O)C(=O)N(C)CC(=O)N(C)[C@@H](CC(C)C)C(=O)N[C@@H](CC(C)C)C(=O)N[C@H](C)CC(=O)N(C)[C@@H](C)C(=O)N[C@@H](CC(C)C)C(=O)N(C)[C@@H](C)C(=O)N(C)[C@@H](CC(C)C)C(=O)N[C@@H](COC(C)(C)C)C(=O)N(C)[C@@H](Cc2ccccc2)C(=O)N[C@@H](C(C)C)C(=O)N(C)[C@@H](CC(C)C)C(=O)N1C [pd052] (cyclo(L[NMeA][NMeL]S(tBu)[NMeF]V[NMeL][NMeI]T[Sar][NMeL]L[d(β3hA)][NMeA])) = 1.01 10^-6 cm/sec
